# Tested on: BRAFV600E full-length (amino acids 2-766) (Homo sapiens, UniProt P15056, V600E)
# Construct: His6-tagged BRAFV600E full-length (amino acids 2-766); His6; made in house; host or cells: baculovirus expression system (insect cells)
# Sequence (P15056 2-766 V600E): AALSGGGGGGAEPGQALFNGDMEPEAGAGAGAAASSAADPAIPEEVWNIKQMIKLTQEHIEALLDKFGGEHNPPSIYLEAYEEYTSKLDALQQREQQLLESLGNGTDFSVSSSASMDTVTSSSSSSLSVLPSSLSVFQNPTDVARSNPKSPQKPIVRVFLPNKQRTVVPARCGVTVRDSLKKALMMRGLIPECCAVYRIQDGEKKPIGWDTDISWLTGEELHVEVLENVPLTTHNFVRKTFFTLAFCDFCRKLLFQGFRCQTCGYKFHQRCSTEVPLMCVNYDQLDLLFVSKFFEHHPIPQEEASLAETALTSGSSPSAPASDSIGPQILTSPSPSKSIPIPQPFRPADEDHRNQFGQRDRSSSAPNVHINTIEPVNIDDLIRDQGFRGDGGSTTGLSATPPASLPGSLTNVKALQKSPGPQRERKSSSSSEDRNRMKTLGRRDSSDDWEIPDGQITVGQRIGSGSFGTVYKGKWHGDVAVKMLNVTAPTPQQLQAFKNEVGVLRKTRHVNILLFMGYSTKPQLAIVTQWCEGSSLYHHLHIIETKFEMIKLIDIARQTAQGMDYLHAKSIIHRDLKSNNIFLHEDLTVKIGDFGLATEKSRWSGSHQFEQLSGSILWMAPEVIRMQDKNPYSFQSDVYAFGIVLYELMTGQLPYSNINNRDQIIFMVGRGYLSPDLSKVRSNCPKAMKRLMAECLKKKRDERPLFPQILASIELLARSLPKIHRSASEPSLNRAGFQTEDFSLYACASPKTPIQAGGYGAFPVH
# Test protocol: B-Raf Accelerated MEK ATPase assay (BRAMA)
# Format: biochemical
# Reported conditions: B-Raf pIC50, Table 1b; later runs, average pIC50 for the one or more runs, categorized
# Experimental: Compounds of the present invention were tested for B-Raf protein serine kinase inhibitory activity in a B-Raf Accelerated MEK ATPase assay (BRAMA). […] The BRAMA assay is a high sensitivity assay which measures an intrinsic MEK-mediated ATP hydrolysis uncoupled from downstream ERK phosphorylation by coupling the formation of ADP to NADH oxidation through the enzymes pyruvate kinase and lactate dehydrogenase. […]
Counter-ions that a name gives are not always drawn.

Compound: Nc1nccc(-c2sc(N3CCOCC3)nc2-c2c(F)ccc(NS(=O)(=O)c3cc(F)ccc3F)c2F)n1 [Example 105]
IC50: ≤ 3.16 nM
//
Compound: CC(C)CNc1nccc(-c2oc(N3CCCC3)nc2-c2cccc(NS(=O)(=O)c3c(F)cccc3F)c2)n1 [Example 111]
IC50: 31.6 to 1000 nM
//
Compound: CC(C)c1nc(-c2ccc(F)c(NS(=O)(=O)c3c(F)cccc3F)c2)c(-c2ccnc(NCC3CCCO3)n2)s1 (centres unmarked) [Example 5]
IC50: 31.6 to 1000 nM
//
Compound: O=S(=O)(Nc1cccc(-c2nc(N3CCOCC3)sc2-c2ccncn2)c1Cl)c1ccoc1 [Example 269]
IC50: ≤ 3.16 nM
//
Compound: CC(C)(C)c1nc(-c2cccc(NS(=O)(=O)c3cc(F)ccc3F)c2Cl)c(-c2ccnc(CCS(C)(=O)=O)n2)s1 [Example 252]
IC50: ≤ 3.16 nM
//
Compound: Nc1nccc(-c2sc(N3CCOCC3)nc2-c2cccc(NS(=O)(=O)N3CCCCC3)c2F)n1 [Example 49]
IC50: 31.6 to 1000 nM
//
Compound: Nc1nccc(-c2sc(N3CCOCC3)nc2-c2cccc(NS(=O)(=O)c3ccoc3)c2F)n1 [Example 267]
IC50: ≤ 3.16 nM
//
Compound: O=S(=O)(Nc1cccc(-c2nc(C3CCOCC3)sc2-c2ccncn2)c1F)c1cc(F)ccc1F [Example 244]
IC50: ≤ 3.16 nM
//
Compound: CC(C)CNc1nccc(-c2sc(C3CCOCC3)nc2-c2ccc(F)c(NS(=O)(=O)c3cc(F)ccc3F)c2)n1 [Example 69]
IC50: ≤ 3.16 nM
//
Compound: CC(C)(C)c1nc(-c2cccc(NS(=O)(=O)c3ccco3)c2Cl)c(-c2ccncn2)s1 [Example 261]
IC50: ≤ 3.16 nM
//
Compound: CC(C)(C)c1nc(-c2cccc(NS(=O)(=O)c3ccsc3)c2F)c(-c2ccnc(N)n2)s1 [Example 233]
IC50: ≤ 3.16 nM
//
Compound: COCCCNc1nccc(-c2sc(C(C)(C)C)nc2-c2cccc(NS(=O)(=O)c3cc(F)ccc3F)c2F)n1 [Example 211]
IC50: ≤ 3.16 nM
//
Compound: COc1ccc(F)cc1S(=O)(=O)Nc1cccc(-c2nc(C(C)C)sc2-c2ccnc(NCCS(C)(=O)=O)n2)c1 [Example 149]
IC50: 31.6 to 1000 nM
//
Compound: CC(C)(C)c1nc(-c2cccc(NS(=O)(=O)c3cc(F)ccc3F)c2F)c(-c2ccnc(NC3CCN(S(C)(=O)=O)CC3)n2)s1 [Example 130]
IC50: ≤ 3.16 nM
//
Compound: CC(C)(C)c1nc(-c2cccc(NS(=O)(=O)c3cc(F)ccc3F)c2F)c(-c2ccnc(N)n2)o1 [Example 297]
IC50: ≤ 3.16 nM
//
Compound: CC(C)c1nc(-c2cccc(NS(=O)(=O)c3ccco3)c2)c(-c2ccnc(NCCS(C)(=O)=O)n2)s1 [Example 30]
IC50: ≤ 3.16 nM
//
Compound: Nc1nccc(-c2sc(N3CCOCC3)nc2-c2cccc(NS(=O)(=O)c3ccoc3)c2Cl)n1 [Example 266]
IC50: ≤ 3.16 nM
//
Compound: CCN(CC)CCNc1nccc(-c2sc(C3CCOCC3)nc2-c2cccc(NS(=O)(=O)c3ccoc3)c2F)n1 [Example 301]
IC50: ≤ 3.16 nM
//
Compound: CS(=O)(=O)NCc1nccc(-c2sc(N3CCOCC3)nc2-c2cccc(NS(=O)(=O)c3cc(F)ccc3F)c2F)n1 [Example 273]
IC50: ≤ 3.16 nM
//
Compound: CC(C)(C)c1nc(-c2cccc(NS(=O)(=O)c3c(F)cccc3F)c2Cl)c(-c2ccnc(N)n2)s1 [Example 236]
IC50: ≤ 3.16 nM
//
Compound: CC(C)c1nc(-c2ccc(F)c(NS(=O)(=O)c3cc(F)ccc3F)c2)c(-c2ccnc(NC3CCN(C)CC3)n2)s1 [Example 123]
IC50: 31.6 to 1000 nM
//
Compound: Nc1nccc(-c2sc(C3CCCCC3)nc2-c2cccc(NS(=O)(=O)c3c(F)cccc3F)c2F)n1 [Example 104]
IC50: ≤ 3.16 nM
//
Compound: CC(C)(C)c1nc(-c2cccc(NS(=O)(=O)c3cc(F)ccc3F)c2Cl)c(-c2ccncn2)s1 [Example 228]
IC50: ≤ 3.16 nM
//
Compound: Cn1ccc(S(=O)(=O)Nc2cccc(-c3nc(C4CCOCC4)sc3-c3ccnc(N)n3)c2F)n1 [Example 289, hydrochloride]
IC50: 31.6 to 1000 nM
//
Compound: Cn1ccc(S(=O)(=O)Nc2cccc(-c3nc(C(C)(C)C)sc3-c3ccnc(N)n3)c2F)c1 [Example 284, hydrochloride]
IC50: 31.6 to 1000 nM
//
Compound: CC(C)c1nc(-c2ccc(F)c(NS(=O)(=O)c3cc(F)ccc3F)c2)c(-c2ccnc(NC3CC(C)(C)N(C)C(C)(C)C3)n2)s1 [Example 132]
IC50: ≤ 3.16 nM
//
Compound: CC(C)(C)c1nc(-c2cccc(NS(=O)(=O)c3cc(F)ccc3F)c2F)c(-c2ccnc(NCCO)n2)s1 [Example 210]
IC50: ≤ 3.16 nM
//
Compound: Nc1nccc(-c2sc(C3CCOCC3)nc2-c2cccc(NS(=O)(=O)c3ccoc3)c2Cl)n1 [Example 265]
IC50: ≤ 3.16 nM
//
Compound: CC(C)c1nc(-c2ccc(F)c(NS(=O)(=O)c3c(F)cccc3F)c2)c(-c2ccnc(NCC3CC3)n2)s1 [Example 6]
IC50: 31.6 to 1000 nM

----------
Measured IC50 accompanies every entry in the list below.
# Tested on: BRAFV600E full-length (amino acids 2-766) (Homo sapiens, UniProt P15056, V600E)
# Construct: His6-tagged BRAFV600E full-length (amino acids 2-766); His6; made in house; host or cells: baculovirus expression system (insect cells)
# Test protocol: B-Raf Accelerated MEK ATPase assay (BRAMA)
# Format: biochemical
# Reported conditions: B-Raf pIC50, Table 1b; later runs, average pIC50 for the one or more runs, categorized
# Description: Compounds of the present invention were tested for B-Raf protein serine kinase inhibitory activity in a B-Raf Accelerated MEK ATPase assay (BRAMA). […] The BRAMA assay is a high sensitivity assay which measures an intrinsic MEK-mediated ATP hydrolysis uncoupled from downstream ERK phosphorylation by coupling the formation of ADP to NADH oxidation through the enzymes pyruvate kinase and lactate dehydrogenase. […]
Structures can show the parent of a compound that is named as a salt.

Compound: CC(C)(C(N)=O)c1nc(-c2cccc(NS(=O)(=O)c3c(F)cccc3F)c2F)c(-c2ccnc(N)n2)s1
Tested on: BRAFV600E full-length (amino acids 2-766) (Homo sapiens, UniProt P15056, V600E)
IC50: ≤ 3.16 nM
//
Compound: CC(C)(CO)c1nc(-c2cccc(NS(=O)(=O)c3c(F)cccc3F)c2F)c(-c2ccnc(N)n2)s1
Tested on: BRAFV600E full-length (amino acids 2-766) (Homo sapiens, UniProt P15056, V600E)
IC50: ≤ 3.16 nM
//
Compound: C[C@@H]1CN(c2nc(-c3cccc(NS(=O)(=O)c4cc(F)ccc4F)c3F)c(-c3ccnc(N)n3)s2)C[C@H](C)O1
Tested on: BRAFV600E full-length (amino acids 2-766) (Homo sapiens, UniProt P15056, V600E)
IC50: ≤ 3.16 nM
//
Compound: O=S(=O)(Nc1cccc(-c2nc(N3CCOCC3)sc2-c2ccncn2)c1F)c1cc(F)ccc1F
Tested on: BRAFV600E full-length (amino acids 2-766) (Homo sapiens, UniProt P15056, V600E)
IC50: ≤ 3.16 nM
//
Compound: Cn1nccc1S(=O)(=O)Nc1cccc(-c2nc(C(C)(C)C)sc2-c2ccnc(N)n2)c1F [Example 282, hydrochloride]
Tested on: BRAFV600E full-length (amino acids 2-766) (Homo sapiens, UniProt P15056, V600E)
IC50: 31.6 to 1000 nM
//
Compound: CC(=O)NCCNc1nccc(-c2sc(C(C)C)nc2-c2cccc(NS(=O)(=O)c3cc(F)ccc3F)c2F)n1
Tested on: BRAFV600E full-length (amino acids 2-766) (Homo sapiens, UniProt P15056, V600E)
IC50: ≤ 3.16 nM
//
Compound: CNc1nccc(-c2sc(C(C)C)nc2-c2cccc(NS(=O)(=O)c3cccc(F)c3)c2)n1
Tested on: BRAFV600E full-length (amino acids 2-766) (Homo sapiens, UniProt P15056, V600E)
IC50: 31.6 to 1000 nM
